- measurement-target: CCR8 (Homo sapiens, UniProt P51685)
- Sequence (P51685 whole entry, the tested form may be a part): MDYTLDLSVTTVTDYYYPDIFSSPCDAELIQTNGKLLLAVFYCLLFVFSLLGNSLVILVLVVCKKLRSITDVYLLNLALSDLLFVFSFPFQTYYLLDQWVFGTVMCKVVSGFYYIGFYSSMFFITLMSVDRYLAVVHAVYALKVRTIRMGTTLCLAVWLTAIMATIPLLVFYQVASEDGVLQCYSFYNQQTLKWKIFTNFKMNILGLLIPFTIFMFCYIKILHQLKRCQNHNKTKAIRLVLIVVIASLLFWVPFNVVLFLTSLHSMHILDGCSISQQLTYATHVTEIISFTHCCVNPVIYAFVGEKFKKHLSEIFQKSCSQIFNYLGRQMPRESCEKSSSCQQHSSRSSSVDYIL
- assay-remarks: Tango assay (Tango-CCR8-Gal4-CHO-K1 cells, CCL1-stimulated, ONE-Glo luminescence)
- condition-summary: Tango Assay IC50, Inhibition of CCR8 Tango cell in vitro
Where a name gives a salt, the structure may show the parent alone.
parameter-measured: IC50 (nM)
API: value field is a number in nM; no unit string.

Please review the entries below; each comes with its answer.
# compound, measurement-target, IC50, nM
rows = [
    ("Cc1ccccc1C(=O)Nc1ccc(S(=O)(=O)NC2CCC(C(=O)N(C)C)CC2)c2ccccc12 (stereo not shown) [Compound 45]", "CCR8 (Homo sapiens, UniProt P51685)", 2700),
    ("Cc1ccccc1C(=O)Nc1ccc(S(=O)(=O)NC(C)c2cccc(N)c2)c2ccccc12 (stereo not shown) [Compound 72A, hydrochloride]", "CCR8 (Homo sapiens, UniProt P51685)", 1140),
    ("Cc1ccccc1C(=O)Nc1cc(F)c(S(=O)(=O)N[C@H](C)C2CCNCC2)cc1Cl [Compound 242A, hydrochloride]", "CCR8 (Homo sapiens, UniProt P51685)", 15),
    ("Cc1ccccc1C(=O)Nc1ccc(S(=O)(=O)N[C@H](C)C2CCN(C)CC2)c(F)c1C [Compound 278, hydrochloride]", "CCR8 (Homo sapiens, UniProt P51685)", 6),
    ("CC(=O)N1CCC(NS(=O)(=O)c2cc(Cl)c(NC(=O)c3ccccc3C)cc2F)CC1 [Compound 312]", "CCR8 (Homo sapiens, UniProt P51685)", 301),
]

State the recorded IC50 for this entry: Cc1cc(S(=O)(=O)NC(CO)C2CCNCC2)ccc1NC(=O)c1ccccc1C (stereo not shown) [Compound 234]
1400

These data points were gathered from patent US12552753B2.
